Reference source: patent US20090156577A1

test system: pathogenic bacteria; experiment: MIC by microdilution broth method (NCCLS M7-A4), in vitro antibacterial activity; assay type: cell-based; conditions: Streptococcus pneumoniae, Organism C: fluoroquinolone-resistant clinical isolate of Streptococcus pneumoniae (QRDR amino acid substitutions)

| compound | study.target | relation.sign | MIC [µg/mL] |
| --- | --- | --- | --- |
| CC(CN)=C1CN(c2c(F)cc3c(=O)c(C(=O)O)cn(-c4nc(N)c(F)cc4F)c3c2Cl)C1 | pathogenic bacteria | = | 2 |
| COc1c(N2CCC/C(=C(\F)CN)CC2)c(F)cc2c(=O)c(C(=O)O)cn(C3CC3)c12 | pathogenic bacteria | = | 2 |
| C[C@H]1COc2c(N3CCC/C(=C(/F)CN)CC3)c(F)cc3c(=O)c(C(=O)O)cn1c23 | pathogenic bacteria | = | 8 |
| NCC(Cl)=C1CCN(c2c(F)cc3c(=O)c(C(=O)O)cn(C4CC4)c3c2OC(F)F)CC1 | pathogenic bacteria | = | 1 |
| C/C(CN)=C1\CCCN(c2nc3c(cc2F)c(=O)c(C(=O)O)cn3-c2ccc(F)cc2F)C1 | pathogenic bacteria | = | 8 |
| NCC(Cl)=C1CN(c2c(F)cc3c(=O)c(C(=O)O)cn(-c4nc(N)c(F)cc4F)c3c2Cl)C1 | pathogenic bacteria | = | 0.12 |
| N#C/C(CN)=C1/CCCN(c2nc3c(cc2F)c(=O)c(C(=O)O)cn3C2CC2)C1 | pathogenic bacteria | > | 16 |
